For each entry below, report its inhibition value.
# tgt: Perforin-1 (Homo sapiens)
# assayRemarks: Inhibition of perforin released from human KHYG-1 NK cells assessed as inhibition of perforin mediated lysis of human K562 cells at 20 uM in presence of 10% mouse serum by [51Cr] release assay
# Type: cell-based
I only need the number, in %, no unit after it.

Prompt: # query: inhibition of entry "CCCNC(=O)COc1ccc(-c2c(C#N)c(N)n3c(nc4ccccc43)c2C#N)cc1"
Completion: 22

Prompt: And "CN(C)C(=O)CCc1ccc(-c2c(C#N)c(N)n3c(nc4ccccc43)c2C#N)cc1" ?
Completion: 64

Prompt: And "Cc1cc2c(c(=S)[nH]1)C(=O)O/C2=C\c1csc2ccccc12" ?
Completion: 6

Prompt: And "N#Cc1c(-c2ccc(OCC(=O)NCCO)cc2)c(C#N)c2nc3ccccc3n2c1N" ?
Completion: 6

Prompt: And "CC(C)NC(=O)COc1ccc(-c2c(C#N)c(N)n3c(nc4ccccc43)c2C#N)cc1" ?
Completion: 22

Prompt: And "N#Cc1c(-c2ccc(C(=O)NCCc3ccncc3)cc2)c(C#N)c2nc3ccccc3n2c1N" ?
Completion: 20

Prompt: And "CN(C)C(=O)COc1ccc(-c2c(C#N)c(N)n3c(nc4ccccc43)c2C#N)cc1" ?
Completion: 25

Prompt: And N#Cc1c(-c2ccc(C(=O)NCC(O)CO)cc2)c(C#N)c2nc3ccccc3n2c1N (configuration not stated) ?
Completion: 0

Prompt: And "N#Cc1c(-c2ccc(C(N)=O)cc2)c(C#N)c2nc3ccccc3n2c1N" ?
Completion: 6

Prompt: And "CNC(=O)COc1ccc(-c2c(C#N)c(N)n3c(nc4ccccc43)c2C#N)cc1" ?
Completion: 42

Prompt: And "Cc1cccc2c1nc1c(C#N)c(-c3ccc(OCC(N)=O)cc3)c(C#N)c(N)n12" ?
Completion: 8

Prompt: And "CCNC(=O)c1ccc(-c2c(C#N)c(N)n3c(nc4ccccc43)c2C#N)cc1" ?
Completion: 12

Prompt: And "N#Cc1c(-c2ccc(OCCO)cc2)c(C#N)c2nc3ccccc3n2c1N" ?
Completion: 16

Prompt: And "N#Cc1c(-c2ccc(C(=O)NCCO)cc2)c(C#N)c2nc3ccccc3n2c1N" ?
Completion: 12

Prompt: And CC(O)CNC(=O)c1ccc(-c2c(C#N)c(N)n3c(nc4ccccc43)c2C#N)cc1 (configuration not stated) ?
Completion: 0

Prompt: And "N#Cc1c(-c2ccc(OCC(N)=O)cc2)c(C#N)c2nc3ccccc3n2c1N" ?
Completion: 2

Prompt: And "CNC(=O)c1ccc(-c2c(C#N)c(N)n3c(nc4ccccc43)c2C#N)cc1" ?
Completion: 12

Prompt: And "N#Cc1c(-c2ccc(C(=O)NCCN3CCOCC3)cc2)c(C#N)c2nc3ccccc3n2c1N" ?
Completion: 5

Prompt: And "Cc1ccc2c(nc3c(C#N)c(-c4ccc(OCC(N)=O)cc4)c(C#N)c(N)n32)c1C" ?
Completion: 7

Prompt: And "Cc1cc2nc3c(C#N)c(-c4ccc(OCC(N)=O)cc4)c(C#N)c(N)n3c2cc1C" ?
Completion: 5

Prompt: And "N#Cc1c(-c2ccc(C(=O)NCCCO)cc2)c(C#N)c2nc3ccccc3n2c1N" ?
Completion: 7

Prompt: And "CCNC(=O)COc1ccc(-c2c(C#N)c(N)n3c(nc4ccccc43)c2C#N)cc1" ?
Completion: 11

----------
# tgt: UniProtKB P14222
# Sequence (P14222 whole entry): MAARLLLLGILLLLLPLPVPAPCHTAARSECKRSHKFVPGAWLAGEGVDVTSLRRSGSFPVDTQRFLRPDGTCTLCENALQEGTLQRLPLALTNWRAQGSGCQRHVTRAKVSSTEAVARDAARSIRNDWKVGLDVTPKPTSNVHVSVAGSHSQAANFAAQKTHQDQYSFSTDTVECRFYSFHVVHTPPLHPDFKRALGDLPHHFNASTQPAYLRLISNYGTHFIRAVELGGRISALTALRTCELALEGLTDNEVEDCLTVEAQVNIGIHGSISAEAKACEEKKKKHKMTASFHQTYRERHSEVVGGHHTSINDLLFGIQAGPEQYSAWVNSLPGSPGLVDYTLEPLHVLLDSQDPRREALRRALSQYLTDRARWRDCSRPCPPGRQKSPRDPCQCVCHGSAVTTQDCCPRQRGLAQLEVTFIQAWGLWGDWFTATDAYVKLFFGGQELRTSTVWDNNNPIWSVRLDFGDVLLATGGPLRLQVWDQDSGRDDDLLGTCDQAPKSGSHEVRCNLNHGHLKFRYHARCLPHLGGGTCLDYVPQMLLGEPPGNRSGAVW
# assayRemarks: Inhibition of perforin released from human KHYG-1 NK cells assessed as inhibition of perforin mediated lysis of human K562 cells at 20 uM in presence of 0.1% BSA by [51Cr] release assay
# Type: cell-based
Rule: Met for inhibition not less than 20%, Not met for anything less.

Prompt: Test whether the molecule "CNC(=O)COc1ccc(-c2c(C#N)c(N)n3c(nc4ccccc43)c2C#N)cc1" records inhibition of 20% or higher.
Completion: Met

Prompt: And CC(O)CNC(=O)c1ccc(-c2c(C#N)c(N)n3c(nc4ccccc43)c2C#N)cc1 (configuration not stated) ?
Completion: Not met

Prompt: And "N#Cc1c(-c2ccc(OCC(N)=O)cc2)c(C#N)c2nc3ccccc3n2c1N" ?
Completion: Not met

Prompt: And "CC(C)NC(=O)COc1ccc(-c2c(C#N)c(N)n3c(nc4ccccc43)c2C#N)cc1" ?
Completion: Met

Prompt: And "N#Cc1c(-c2ccc(C(=O)NCCO)cc2)c(C#N)c2nc3ccccc3n2c1N" ?
Completion: Not met

Prompt: And "Cc1cccc2c1nc1c(C#N)c(-c3ccc(OCC(N)=O)cc3)c(C#N)c(N)n12" ?
Completion: Not met

Prompt: And N#Cc1c(-c2ccc(C(=O)NCC(O)CO)cc2)c(C#N)c2nc3ccccc3n2c1N (configuration not stated) ?
Completion: Not met

Prompt: And "Cc1cc2nc3c(C#N)c(-c4ccc(OCC(N)=O)cc4)c(C#N)c(N)n3c2cc1C" ?
Completion: Met

Prompt: And "N#Cc1c(-c2ccc(C(=O)NCCN3CCOCC3)cc2)c(C#N)c2nc3ccccc3n2c1N" ?
Completion: Not met

Prompt: And "CN(C)C(=O)COc1ccc(-c2c(C#N)c(N)n3c(nc4ccccc43)c2C#N)cc1" ?
Completion: Met

Prompt: And "N#Cc1c(-c2ccc(C(N)=O)cc2)c(C#N)c2nc3ccccc3n2c1N" ?
Completion: Not met

Prompt: And "Cc1ccc2c(nc3c(C#N)c(-c4ccc(OCC(N)=O)cc4)c(C#N)c(N)n32)c1C" ?
Completion: Met

Prompt: And "CCNC(=O)COc1ccc(-c2c(C#N)c(N)n3c(nc4ccccc43)c2C#N)cc1" ?
Completion: Not met

Prompt: And "N#Cc1c(-c2ccc(C(=O)NCCc3ccncc3)cc2)c(C#N)c2nc3ccccc3n2c1N" ?
Completion: Not met

Prompt: And "N#Cc1c(-c2ccc(OCC(=O)NCCO)cc2)c(C#N)c2nc3ccccc3n2c1N" ?
Completion: Not met

Prompt: And "CCNC(=O)c1ccc(-c2c(C#N)c(N)n3c(nc4ccccc43)c2C#N)cc1" ?
Completion: Not met

Prompt: And "CNC(=O)c1ccc(-c2c(C#N)c(N)n3c(nc4ccccc43)c2C#N)cc1" ?
Completion: Not met

----------
# assayRemarks: Toxicity against human KHYG-1 NK cells assessed as cell viability at 20 uM incubated for 24 hrs at 37 degC y Trypan blue exclusion method
# Type: cell-based
# experimentalContext: read-out: Activity
For each entry below, report its viability at 24 h, 20 µM value.
Write the quantity with the unit trailing the number.

Prompt: # query: viability at 24 h, 20 µM of entry "Cc1cc2c(c(=S)[nH]1)C(=O)O/C2=C\c1csc2ccccc12"
Completion: 88%

Prompt: And "N#Cc1c(-c2ccc(C(=O)NCCO)cc2)c(C#N)c2nc3ccccc3n2c1N" ?
Completion: 89%

Prompt: And "CCNC(=O)c1ccc(-c2c(C#N)c(N)n3c(nc4ccccc43)c2C#N)cc1" ?
Completion: 53%

Prompt: And CC(O)CNC(=O)c1ccc(-c2c(C#N)c(N)n3c(nc4ccccc43)c2C#N)cc1 (configuration not stated) ?
Completion: 68%

Prompt: And N#Cc1c(-c2ccc(C(=O)NCC(O)CO)cc2)c(C#N)c2nc3ccccc3n2c1N (configuration not stated) ?
Completion: 84%

Prompt: And "CCNC(=O)COc1ccc(-c2c(C#N)c(N)n3c(nc4ccccc43)c2C#N)cc1" ?
Completion: 77%

Prompt: And "CN(C)C(=O)COc1ccc(-c2c(C#N)c(N)n3c(nc4ccccc43)c2C#N)cc1" ?
Completion: 78%

Prompt: And "Cc1cc2nc3c(C#N)c(-c4ccc(OCC(N)=O)cc4)c(C#N)c(N)n3c2cc1C" ?
Completion: 62%

Prompt: And "CC(C)NC(=O)COc1ccc(-c2c(C#N)c(N)n3c(nc4ccccc43)c2C#N)cc1" ?
Completion: 70%

Prompt: And "N#Cc1c(-c2ccc(C(=O)NCCN3CCOCC3)cc2)c(C#N)c2nc3ccccc3n2c1N" ?
Completion: 85%

Prompt: And "CCCNC(=O)COc1ccc(-c2c(C#N)c(N)n3c(nc4ccccc43)c2C#N)cc1" ?
Completion: 90%

Prompt: And "Cc1cccc2c1nc1c(C#N)c(-c3ccc(OCC(N)=O)cc3)c(C#N)c(N)n12" ?
Completion: 88%

Prompt: And "N#Cc1c(-c2ccc(OCC(=O)NCCO)cc2)c(C#N)c2nc3ccccc3n2c1N" ?
Completion: 92%

Prompt: And "N#Cc1c(-c2ccc(C(=O)NCCCO)cc2)c(C#N)c2nc3ccccc3n2c1N" ?
Completion: 86%

Prompt: And "CNC(=O)COc1ccc(-c2c(C#N)c(N)n3c(nc4ccccc43)c2C#N)cc1" ?
Completion: 84%

Prompt: And "CNC(=O)c1ccc(-c2c(C#N)c(N)n3c(nc4ccccc43)c2C#N)cc1" ?
Completion: 84%

Prompt: And "N#Cc1c(-c2ccc(C(=O)NCCc3ccncc3)cc2)c(C#N)c2nc3ccccc3n2c1N" ?
Completion: 62%

Prompt: And "N#Cc1c(-c2ccc(C(N)=O)cc2)c(C#N)c2nc3ccccc3n2c1N" ?
Completion: 79%

Prompt: And "Cc1ccc2c(nc3c(C#N)c(-c4ccc(OCC(N)=O)cc4)c(C#N)c(N)n32)c1C" ?
Completion: 60%

Prompt: And "N#Cc1c(-c2ccc(OCCO)cc2)c(C#N)c2nc3ccccc3n2c1N" ?
Completion: 85%

Prompt: And "CN(C)C(=O)CCc1ccc(-c2c(C#N)c(N)n3c(nc4ccccc43)c2C#N)cc1" ?
Completion: 96%

Prompt: And "N#Cc1c(-c2ccc(OCC(N)=O)cc2)c(C#N)c2nc3ccccc3n2c1N" ?
Completion: 86%
